The measurements presented in this section are drawn from patent US11407783B2.

- System: PC-3 (human prostate cancer cell)
- assay_procedure: In vitro antitumor activity, CellTiter-Glo cell viability, 48 h
- Format: cell-based
- condition_label: 48 h, read-out: Relative IC50 (μM) PC-3
metric_name: IC50 (µM)
The figure you give is taken to be in µM; do not add the unit.

// worked examples, IC50 included
1. CC(C)[C@]12O[C@H]1[C@@H]1O[C@]13[C@]1(O[C@H]1C[C@H]1C4=C(CC[C@@]13C)C(=O)O/C4=C(/OC(=O)c1ccco1)c1ccccc1)[C@@H]2OC(=O)OC(C)(C)C [CK21S-001-b] :: 0.029
2. CC(C)[C@]12O[C@H]1[C@@H]1O[C@]13[C@]1(O[C@H]1C[C@H]1C4=C(CC[C@@]13C)C(=O)O/C4=C(/OC(=O)C1CCCCC1)c1ccccc1)[C@@H]2OC(=O)OC(C)(C)C [CK21S-006-b] :: 0.034
3. CC(C)[C@]12O[C@H]1[C@@H]1O[C@]13[C@]1(O[C@H]1C[C@H]1C4=C(CC[C@@]13C)C(=O)O/C4=C(/OC(=O)c1ccco1)c1ccco1)[C@@H]2OC(=O)OC(C)(C)C [CK21S-004-b] :: 0.045

Request: Record lookup: for PC-3 (human prostate cancer cell), what IC50 belongs to COc1ccc(C(=O)O/C(=C2/OC(=O)C3=C2[C@@H]2C[C@@H]4O[C@@]45[C@H](OC(=O)OC(C)(C)C)[C@@]4(C(C)C)O[C@H]4[C@@H]4O[C@@]45[C@@]2(C)CC3)c2ccc(OC)cc2)cc1 [CK21S-002-b] ?
Response: 0.042

Request: For CC(C)[C@]12O[C@H]1[C@@H]1O[C@]13[C@]1(O[C@H]1C[C@H]1C4=C(CC[C@@]13C)C(=O)O/C4=C(/OC(=O)c1ccccc1)c1ccccc1)[C@@H]2O [CK21S-005] then?
Response: 0.03

Request: Same question, CC(C)[C@]12O[C@H]1[C@@H]1O[C@]13[C@]1(O[C@H]1C[C@H]1C4=C(CC[C@@]13C)C(=O)O/C4=C(/OC(=O)c1ccc(C(F)(F)F)cc1)c1ccc(C(F)(F)F)cc1)[C@@H]2OC(=O)OC(C)(C)C [CK21S-003-b] this time
Response: 0.021
